- Tgt: T1, StrepII-tagged human ROR1 extracellular domain (human, UniProt Q01973 30-406)
- T1 construct: extracellular domain; also called ROR1-strep; strep-tagged human ROR1
- Procedure text: SPR (Biacore T200), mAb captured by anti-human Fc-gamma IgG on CM5, ROR1-strep as analyte
Property label: pKd
Reminder that pKd means the negative base-10 logarithm of the concentration expressed in mol/L.

Q: Tell me the measured pKd of HuXBR1-402(8) (mAb289) (antibody, human IgG1, V domains shown, Humanized IgG (human IgG1 constant regions, lambda)) VH: QVQLQESGPGLVKPSETLSLTCTVSGFDISSYYMSWVRQPPGKGLEWIGAIGISGNAYYASWAKSRVTISRDTSKNQFSLKLSSVTAADTAVYYCARDHPTYGMDLWGPGTLVTVSS VL: SYELTQPPSVSVSPGQTAIITCEGNNIGSKAVHWYQQKPGLSPVLVIYDDDERPSGIPERFSGSNSGNTATLTVSGTQDMDEADYYCQVWDSSAYVFGGGTKLTVLG , please.
A: 8.67
